- test_system: BRD4 BD1 (Homo sapiens)
- experiment_notes: AlphaScreen binding assay, BRD4 Bromodomain 1
- Method: The binding of Example compounds to BRD4 Bromodomain 1 and BRD4 Bromodomain 2 was assessed using 384-well AlphaScreen assay technology. His-epitope tagged BRD4 BD144-168 and BRD4 BD2333-460 were cloned, expressed, and purified to homogeneity. BRD4 BD1 and BRD4 BD2 binding and inhibition was assessed by monitoring the engagement of biotinylated Histone H4 (1-21) K5/8/12/16 tetra-acetylated peptide with the targets using the AlphaScreen technology (PerkinElmer). […]
parameter: IC50

| compound | test_system | IC50 |
| --- | --- | --- |
| CC(=O)N1c2ccc(-c3cnn(CC#N)c3)cc2N(C(=O)OC(C)C)C[C@@H]1C [Example I-607] | BRD4 BD1 (Homo sapiens) | 100 to 1000 nM |

Then there is this compound:
Sample COC(=O)N1c2ccc(-c3ccc(S(=O)(=O)CCO)cc3)cc2N(C(=O)C2CC2)C[C@@H]1C [Example I-462] ; IC50 observed: 1000 to 10000 nM
